All values here come from patent US5721103A.

system under test: RXRγ (Mus musculus, UniProt P28705)
Sequence (P28705 whole entry): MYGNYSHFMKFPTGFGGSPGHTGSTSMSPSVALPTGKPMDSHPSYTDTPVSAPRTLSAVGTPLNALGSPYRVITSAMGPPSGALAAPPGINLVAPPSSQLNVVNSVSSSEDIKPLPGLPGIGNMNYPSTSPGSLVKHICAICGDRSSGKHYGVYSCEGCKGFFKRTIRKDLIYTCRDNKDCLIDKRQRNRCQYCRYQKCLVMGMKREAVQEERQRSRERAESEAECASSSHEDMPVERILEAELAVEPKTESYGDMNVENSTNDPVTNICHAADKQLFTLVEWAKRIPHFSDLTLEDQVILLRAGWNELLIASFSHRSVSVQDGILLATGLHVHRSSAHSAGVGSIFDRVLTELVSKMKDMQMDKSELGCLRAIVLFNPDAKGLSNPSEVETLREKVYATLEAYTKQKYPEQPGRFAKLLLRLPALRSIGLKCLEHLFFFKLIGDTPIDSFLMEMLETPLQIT
experiment notes: Co-transfection assay, RXRγ agonist activity
experimental setup: CV-1 cells, 40 hours, read-out: Potency (EC50) RXRγ
Please go through the items and note down their pEC50.
Numbers only, as −log10 of the molar value.

CCc1cc(C)c(\C(C)=C/C=C/C(C)=C/C(=O)O)cc1CC ... 7.11

Please turn your attention to the following entry.
Sample `CC(/C=C/C=C(\C)c1ccc(C(C)(C)C)cc1)=C\C(=O)O` ; pEC50 observed: 6.65

###

system under test: RARγ (Homo sapiens)
Construct: expressed in transfected cells; host or cells: CV-1 (African green monkey kidney)
Sequence (P13631 whole entry): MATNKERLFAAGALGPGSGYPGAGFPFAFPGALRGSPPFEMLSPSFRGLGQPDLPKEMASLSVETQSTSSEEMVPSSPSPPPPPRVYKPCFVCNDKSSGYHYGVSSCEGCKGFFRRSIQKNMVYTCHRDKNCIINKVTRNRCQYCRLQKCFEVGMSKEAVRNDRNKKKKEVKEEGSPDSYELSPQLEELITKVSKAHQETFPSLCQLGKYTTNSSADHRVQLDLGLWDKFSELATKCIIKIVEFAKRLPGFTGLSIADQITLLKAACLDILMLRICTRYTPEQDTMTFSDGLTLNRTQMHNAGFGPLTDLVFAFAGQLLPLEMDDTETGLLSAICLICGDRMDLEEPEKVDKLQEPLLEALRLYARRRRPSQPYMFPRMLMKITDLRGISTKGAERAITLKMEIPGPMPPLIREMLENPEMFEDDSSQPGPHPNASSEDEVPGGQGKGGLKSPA
experiment notes: Co-transfection assay, RARγ agonist activity
Format: cell-based
experimental setup: CV-1 cells, 40 hours, read-out: Potency (EC50) RARγ
observable: pEC50
Give bare numbers, as −log10 of the molar value.

CC(/C=C/C=C(\C)c1ccc(C(C)(C)C)cc1)=C\C(=O)O ... 7.48

Please turn your attention to the following entry.
Sample `CCc1cc(C)c(\C(C)=C/C=C/C(C)=C/C(=O)O)cc1CC` ; pEC50 observed: 6.49
